Reference source for all entries: ChEMBL document CHEMBL3576790

Below, each of the compounds is paired with its reported IC50 value.
Biological target: UniProtKB P03951
Sequence (P03951 19-387 limits assumed): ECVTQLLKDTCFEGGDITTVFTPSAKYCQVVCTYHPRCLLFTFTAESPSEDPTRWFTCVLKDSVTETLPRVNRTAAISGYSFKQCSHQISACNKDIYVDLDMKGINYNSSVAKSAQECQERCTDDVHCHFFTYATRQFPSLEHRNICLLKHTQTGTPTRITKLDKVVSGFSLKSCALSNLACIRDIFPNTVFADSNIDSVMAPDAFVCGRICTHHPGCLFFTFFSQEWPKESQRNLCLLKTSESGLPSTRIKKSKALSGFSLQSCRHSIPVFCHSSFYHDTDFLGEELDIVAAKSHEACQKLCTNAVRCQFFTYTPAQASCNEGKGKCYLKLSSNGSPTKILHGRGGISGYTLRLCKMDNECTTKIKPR
Sequence (P03951 388-625 limits assumed): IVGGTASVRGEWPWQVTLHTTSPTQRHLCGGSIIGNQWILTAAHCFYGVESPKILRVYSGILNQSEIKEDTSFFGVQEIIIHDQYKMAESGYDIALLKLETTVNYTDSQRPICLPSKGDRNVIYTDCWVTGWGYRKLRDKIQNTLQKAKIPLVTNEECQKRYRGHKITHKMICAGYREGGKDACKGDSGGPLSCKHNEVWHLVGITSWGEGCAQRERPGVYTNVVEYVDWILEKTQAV
*1 amine or outer side, *2 acyl side, *3 side chain or, on linkers, in order; H or OH if unused. Where a SMILES comes first, the peptide text is derived from it. Bridges are numbered along the chain shown (N, C = ends). [ ]: non-standard residue; d: D form. hTyr = N[C@@H](CCc1ccc(O)cc1)C(=O)O; NMeA = CN[C@@H](C)C(=O)O; CO = O=C([*:1])[*:2]
State the result as a value with its unit after it.

Qu. # get_value(readout= IC50, system= UniProtKB P03951) for CC(C)[C@@H]1NC(=O)[C@H](NC(=O)N[C@@H](CCCNC(=N)N)C(=O)O)CCCCNC(=O)[C@H](Cc2ccccc2)NC(=O)[C@H](C)N(C)C(=O)[C@H](CCc2ccc(O)cc2)NC1=O [ANABAENOPEPTIN B] ({Arg-CO}-[dK]V[hTyr][NMeA]F; lactam 1-C)
Ans. 24 µM

Next:
Qu. # get_value(readout= IC50, system= UniProtKB P03951) for CC(C)[C@@H]1NC(=O)[C@H](NC(=O)N[C@@H](CCCCN)C(=O)O)CCCCNC(=O)[C@H](Cc2ccccc2)NC(=O)[C@H](C)N(C)C(=O)[C@H](CCc2ccc(O)cc2)NC1=O
Ans. 12 µM

Qu. # get_value(readout= IC50, system= UniProtKB P03951) for CC[C@H](C)[C@@H]1NC(=O)[C@H](NC(=O)N[C@@H](CCCNC(=N)N)C(=O)O)CCCCNC(=O)[C@H](Cc2ccccc2)NC(=O)[C@H](C)N(C)C(=O)[C@H](CCc2ccc(O)cc2)NC1=O [ANABAENOPEPTIN F] ({Arg-CO}-[dK]I[hTyr][NMeA]F; lactam 1-C)
Ans. 3.9 µM
